- Test system: Plasmodium berghei
- test_protocol: Screen against P. berghei liver stage (PbLuc), transformed with Luciferase, at 10uM
- Format: functional, HepG2
- experimental_parameters: tested at 10 uM
Hit rate of the full screen: of about 69,000 compounds, about 8,600 (12%) showed an effect of 50% or more. The entries come from a sample that favours strong results as a whole.
Definition: the class of an entry is the range in c1 = under 20%, c2 = from 20% up to 40%, c3 = 40% and over that contains its INHIBITION.

- compound: "CC(Cn1cc(Br)cn1)C(=O)Nc1ccc(C(N)=O)cc1 (configuration not stated)"
  discrete_label: "c3"
- compound: "CC(Cn1cc(Cl)cn1)C(=O)Nc1ccc(CN2CCCCCC2)cc1 (configuration not stated)"
  discrete_label: "c1"
- compound: "CCOCn1cc(NC(=O)C2CCN(S(C)(=O)=O)CC2)cn1"
  discrete_label: "c2"
- compound: "CC1CCN(c2nc3cn(-c4ccc(F)cc4)c(=O)c-3c[nH]2)CC1"
  discrete_label: "c2"
- compound: "N#CC(Sc1nnnn1C1CCOCC1)C1CCCCC1 (configuration not stated)"
  discrete_label: "c1"
- compound: "CC(Cn1cc(Br)cn1)C(=O)Nc1ccn(C)n1 (configuration not stated)"
  discrete_label: "c1"
- compound: "CCCc1noc(CN2CCCCC2Cn2cncn2)n1 (configuration not stated)"
  discrete_label: "c2"
- compound: "COC(=O)C(C)Sc1nnnn1C1CCOCC1 (configuration not stated)"
  discrete_label: "c2"
- compound: "CC(Sc1nnnn1C1CCOCC1)C(F)(F)F (configuration not stated)"
  discrete_label: "c3"
- compound: "CC(Cn1cc(Br)cn1)C(=O)Nc1ccc(Cl)cn1 (configuration not stated)"
  discrete_label: "c3"
- compound: "O=C(CC1CC1)N1CC[C@H]2[C@@H]1CCC(=O)N2Cc1ccncc1"
  discrete_label: "c2"
- compound: "CC(Cn1cc(Br)cn1)C(=O)Nc1ccncc1 (configuration not stated)"
  discrete_label: "c1"
